- assay_system: human 17β-HSD2 (Homo sapiens, UniProt P37059)
- Sequence (P37059 1-387): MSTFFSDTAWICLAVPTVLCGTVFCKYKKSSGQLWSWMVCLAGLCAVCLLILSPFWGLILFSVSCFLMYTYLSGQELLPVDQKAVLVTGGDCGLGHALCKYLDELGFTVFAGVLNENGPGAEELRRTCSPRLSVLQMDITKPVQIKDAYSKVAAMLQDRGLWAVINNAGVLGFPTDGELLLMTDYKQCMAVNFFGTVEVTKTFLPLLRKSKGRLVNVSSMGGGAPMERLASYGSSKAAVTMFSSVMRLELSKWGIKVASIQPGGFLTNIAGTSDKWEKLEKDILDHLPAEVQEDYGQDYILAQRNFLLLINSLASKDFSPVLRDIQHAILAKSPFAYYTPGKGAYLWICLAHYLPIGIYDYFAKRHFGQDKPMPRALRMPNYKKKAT
- test_name: 17β-HSD2 activity assay using lysates of HEK-293 cells expressing the recombinant human enzyme
- run_conditions: HEK-293 lysates, 200 nM estradiol, 500 μM NAD+, 10 min 37 °C
pIC50: −log10 of the molar value.
quantity_kind: pIC50

>>> reported_result("O=c1c(-c2ccc(O)cc2O)coc2cc(O)cc(O)c12 [compound 9, 2′-hydroxygenistein]")
5.69

(a) O=C(/C=C/c1ccc(O)cc1)c1ccc(O)cc1O
(b) O=C(Cc1ccc(O)c(Cl)c1)NCc1ccccc1
(c) O=C(Cc1ccc(O)c(Cl)c1)NCCc1c[nH]c2ccccc12
q: Order the 3 compounds from highest to lowest pIC50. Please list the labels in the order you were asked to rank them.
a: a, c, b
(a: 6.44, c: 6.01, b: 5.47)

----------
- assay_system: human 17β-HSD2 (Homo sapiens, UniProt P37059)
- test_name: 17β-HSD2 activity assay using lysates of HEK-293 cells expressing the recombinant human enzyme
- run_conditions: HEK-293 lysates, 200 nM estradiol, 500 μM NAD+, 10 min 37 °C
pIC50: −log10 of the molar value.
quantity_kind: pIC50

>>> reported_result("COc1cc(C[C@@H](C)[C@H](C)Cc2ccc(O)c(OC)c2)ccc1O [compound 4, (−)-dihydroguaiaretic acid]")
6.03

(I) O=C(/C=C/c1ccc(O)c(O)c1)c1ccc(O)cc1O [compound 10, butein]
(II) O=C(Cc1ccc(O)c(Cl)c1)NCc1ccccc1Cl [compound 18]
(III) O=C(Cc1ccc(O)c(Cl)c1)NCCc1ccccc1 [compound 13]
(IV) O=C(/C=C/c1ccc(O)c(O)c1)O[C@H](Cc1ccc(O)c(O)c1)C(=O)O [compound 11, rosmarinic acid]
q: Order the 4 compounds from highest to lowest pIC50. Please list the labels in the order you were asked to rank them.
a: II, III, IV, I

----------
- assay_system: human 17β-HSD2 (Homo sapiens, UniProt P37059)
- test_name: 17β-HSD2 activity assay using lysates of HEK-293 cells expressing the recombinant human enzyme;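 also: conversion of tritium-labelled estradiol (200 nM, with 500 µM NAD+, 10 min) quantified after TLC separation by scintillation counting, at least three independent measurements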
- run_conditions: HEK-293 lysates, 200 nM estradiol, 500 μM NAD+, 10 min 37 °C
quantity_kind: IC50 (nM)
Provide only the numeric value, understood in nM.

Sample records with IC50:
>>> reported_result("CC(Cc1ccc(O)c(O)c1)C(C)Cc1ccc(O)c(O)c1 (stereo not drawn) [compound 1, nordihydroguaiaretic acid]")
380
>>> reported_result("CCOC(=O)c1ccc(O)c(OC)c1 [compound 12, ethyl vanillate]")
1280

q: Given the entry `COc1cc(/C=C/C(=O)CC(=O)/C=C/c2ccc(O)c(OC)c2)ccc1O` , report its measured IC50.
a: 1730
